- Assay target: PFKL 6-phosphofructokinase, liver type (Homo sapiens)
- Construct: isoTOP-ABPP experiments performed in cell lysates (in vitro); endogenous in cells; host or cells: soluble proteome of human cancer cell lines (MDA-MB-231; Ramos and Jurkat also prepared)
- Sequence (P17858 whole entry): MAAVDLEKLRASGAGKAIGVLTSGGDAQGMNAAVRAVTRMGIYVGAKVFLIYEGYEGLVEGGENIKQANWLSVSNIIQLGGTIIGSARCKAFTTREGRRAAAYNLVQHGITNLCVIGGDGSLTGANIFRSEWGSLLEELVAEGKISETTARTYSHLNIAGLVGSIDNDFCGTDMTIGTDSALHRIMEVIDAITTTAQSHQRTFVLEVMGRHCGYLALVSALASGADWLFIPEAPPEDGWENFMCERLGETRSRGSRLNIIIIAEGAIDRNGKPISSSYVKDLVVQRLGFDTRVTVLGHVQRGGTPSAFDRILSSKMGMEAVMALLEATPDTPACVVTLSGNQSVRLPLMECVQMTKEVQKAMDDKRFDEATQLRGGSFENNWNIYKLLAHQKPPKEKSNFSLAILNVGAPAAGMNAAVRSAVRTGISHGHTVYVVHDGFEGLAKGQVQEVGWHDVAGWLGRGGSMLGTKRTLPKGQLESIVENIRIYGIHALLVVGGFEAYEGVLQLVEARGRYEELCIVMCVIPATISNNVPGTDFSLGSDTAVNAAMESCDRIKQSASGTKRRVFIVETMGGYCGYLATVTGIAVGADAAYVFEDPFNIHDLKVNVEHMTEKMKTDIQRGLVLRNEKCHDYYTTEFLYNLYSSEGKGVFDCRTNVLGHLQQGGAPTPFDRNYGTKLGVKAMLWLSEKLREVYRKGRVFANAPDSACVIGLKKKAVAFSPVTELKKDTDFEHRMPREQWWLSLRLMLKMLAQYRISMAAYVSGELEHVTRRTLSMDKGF
- Assay overview: competitive isoTOP-ABPP
- Type: binding
- Assay setup: 50 uM, 231 sol, in vitro
Property: isoTOP-ABPP reactivity ratio at lysine P17858_K315

[
  {
    "Compound": "O=C(Oc1c(F)c(F)c(F)c(F)c1F)C1CCN(C(=O)OCc2ccccc2)CC1",
    "Test value": 0.9
  },
  {
    "Compound": "COc1cc(CCC(=O)Oc2ccc([N+](=O)[O-])cc2[N+](=O)[O-])cc(OC)c1OC",
    "Test value": 0.8
  },
  {
    "Compound": "O=C(CCc1cn(-c2ccccc2)nc1-c1ccccc1)Oc1ccc([N+](=O)[O-])cc1[N+](=O)[O-]",
    "Test value": 0.8
  },
  {
    "Compound": "O=C(Oc1c(F)c(F)c(F)c(F)c1F)c1ccc2ccccc2n1",
    "Test value": 0.9
  },
  {
    "Compound": "Cn1cc(CC(=O)Oc2ccc([N+](=O)[O-])cc2[N+](=O)[O-])c2ccccc21",
    "Test value": 20.0
  },
  {
    "Compound": "O=C(Oc1ccc([N+](=O)[O-])cc1[N+](=O)[O-])C(c1ccccc1)c1ccccc1 [fragment 30, 2,4-Dinitrophenyl 2,2-diphenylacetate]",
    "Test value": 4.9
  }
]

====

- Assay target: TPMT Thiopurine S-methyltransferase (Homo sapiens, UniProt P51580)
- Construct: isoTOP-ABPP experiments performed in cell lysates (in vitro); endogenous in cells; host or cells: soluble proteome of human cancer cell lines (MDA-MB-231; Ramos and Jurkat also prepared)
- Sequence (P51580 whole entry): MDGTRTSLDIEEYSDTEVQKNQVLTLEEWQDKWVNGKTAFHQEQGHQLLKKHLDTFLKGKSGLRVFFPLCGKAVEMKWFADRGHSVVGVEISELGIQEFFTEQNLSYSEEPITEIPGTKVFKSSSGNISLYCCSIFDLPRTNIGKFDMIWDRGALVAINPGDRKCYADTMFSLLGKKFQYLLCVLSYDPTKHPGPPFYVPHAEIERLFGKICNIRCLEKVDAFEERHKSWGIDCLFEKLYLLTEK
- Assay overview: competitive isoTOP-ABPP
- Type: binding
- Assay setup: P51580_K32; 50 uM, 231 sol, in vitro
- Protocol: In vitro covalent fragment treatment for isoTOP-ABPP. All compounds were made up as solutions in DMSO (100×) and were used at a final concentration of 50 μM for activated esters and 100 μM for guanidinylating agents. […] R value calculation and processing. The ratios of light and heavy MS1 peaks for each unique peptide were quantified with a CIMAGE software using default parameters (3 MS1 acquisitions per peak and signal to noise threshold set to 2.5). […]
Property: R value (DMSO/fragment) for probe 1 labeling

[
  {
    "Molecule": "O=C(Oc1c(F)c(F)c(F)c(F)c1F)C(c1ccccc1)c1ccccc1 [fragment 20, Pentafluorophenyl 2,2-diphenylacetate]",
    "Test value": 0.9
  },
  {
    "Molecule": "Cn1cc(CC(=O)Oc2c(F)c(F)c(F)c(F)c2F)c2ccccc21",
    "Test value": 1.3
  },
  {
    "Molecule": "O=C(CCc1cn(-c2ccccc2)nc1-c1ccccc1)Oc1c(F)c(F)c(F)c(F)c1F",
    "Test value": 1.3
  },
  {
    "Molecule": "O=C(Oc1c(F)c(F)c(F)c(F)c1F)c1cc(C(F)(F)F)cc(C(F)(F)F)c1",
    "Test value": 4.9
  },
  {
    "Molecule": "COc1cc(CCC(=O)Oc2c(F)c(F)c(F)c(F)c2F)cc(OC)c1OC",
    "Test value": 6.4
  }
]
